- Experimental target: human Edg-1 receptor (Homo sapiens)
- Construct: FLAG (N); expressed in transfected cells; membrane preparation
- Sequence (P21453 whole entry): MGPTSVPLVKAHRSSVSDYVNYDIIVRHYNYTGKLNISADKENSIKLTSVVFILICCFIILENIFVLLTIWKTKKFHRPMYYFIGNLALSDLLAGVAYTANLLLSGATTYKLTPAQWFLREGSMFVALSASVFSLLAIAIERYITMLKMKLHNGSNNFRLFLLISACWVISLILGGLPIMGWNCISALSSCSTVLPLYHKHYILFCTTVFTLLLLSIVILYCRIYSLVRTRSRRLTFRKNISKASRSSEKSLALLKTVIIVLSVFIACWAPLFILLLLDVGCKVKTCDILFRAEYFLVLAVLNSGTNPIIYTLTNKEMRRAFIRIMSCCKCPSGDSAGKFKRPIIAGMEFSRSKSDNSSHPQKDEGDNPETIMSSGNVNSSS
- Procedure summary: GTP-γ-S assay using human Edg-1 receptors (scintillation proximity assay, CHO Flp-In cell membrane preparation)
- Format: biochemical
- Settings: test compound at 10 μM; high control 10 μM S1P regarded as 100% activation; [35S]GTP-γ-S binding, triplicate; read-out: % Activation (Edg-1 receptor activation in percent of the activation by 10 μM S1P)
For each of the molecules below, state its activation at 10 µM.
Note: unit % is implicit; provide only the numeric part.

Ask: Report activation at 10 µM for CCCOc1nc(OCCC(C)C)nc2oc(-c3cc(C)c(OCC(=O)O)c(C)c3)nc12 [Example 22] please.
Reply: 92

Ask: Report activation at 10 µM for CCCOc1nc(Oc2ccccc2F)nc2oc(-c3cc(C)c(OCC(=O)O)c(C)c3)nc12 [Example 4] please.
Reply: 76

Ask: Report activation at 10 µM for CCOc1nc(Oc2cccc(F)c2)nc2oc(-c3cc(C)c(OCC(=O)O)c(C)c3)nc12 [Example 25] please.
Reply: 84

Ask: Report activation at 10 µM for CCCOc1nc(Oc2cc(C(F)(F)F)ccc2F)nc2oc(-c3cc(C)c(OCC(=O)O)c(C)c3)nc12 [Example 73] please.
Reply: 59

Ask: Report activation at 10 µM for CCCOc1nc(Oc2cc(F)cc(Cl)c2)nc2oc(-c3cc(C)c(OCC(=O)O)c(C)c3)nc12 [Example 60] please.
Reply: 59

###

- Experimental target: human Edg-1 receptor (Homo sapiens)
- Construct: FLAG (N); expressed in transfected cells; membrane preparation
- Procedure summary: GTP-γ-S assay using human Edg-1 receptors (scintillation proximity assay, CHO Flp-In cell membrane preparation)
- Type: biochemical
- Settings: test compound at 10 μM; high control 10 μM S1P regarded as 100% activation; [35S]GTP-γ-S binding, triplicate; read-out: % Activation (Edg-1 receptor activation in percent of the activation by 10 μM S1P)
For each of the molecules below, state its activation at 10 µM.
Please provide the amount together with its unit, number first.

Ask: Report activation at 10 µM for CCCOc1nc(Oc2cc(C(F)(F)F)ccc2Cl)nc2oc(-c3cc(C)c(OCC(=O)O)c(C)c3)nc12 [Example 77] please.
Reply: 77%

Ask: Report activation at 10 µM for CCCOc1nc(Oc2cccc(CC)c2)nc2oc(-c3cc(C)c(OCC(=O)O)c(C)c3)nc12 [Example 40] please.
Reply: 95%

Ask: Report activation at 10 µM for CCCOc1nc(Oc2ccc(F)cc2F)nc2oc(-c3cc(C)c(OCC(=O)O)c(C)c3)nc12 [Example 8] please.
Reply: 84%

Ask: Report activation at 10 µM for CCCOc1nc(O[C@@H]2CCCC[C@H]2F)nc2oc(-c3cc(C)c(OCC(=O)O)c(C)c3)nc12 (relative stereo) [Example 3] please.
Reply: 65%

Ask: Report activation at 10 µM for CCCOc1nc(Oc2cccc(F)c2F)nc2oc(-c3cc(C)c(OCC(=O)O)c(C)c3)nc12 [Example 49] please.
Reply: 103%

Ask: Report activation at 10 µM for CCCOc1nc(Oc2cccc(C(F)(F)F)c2Cl)nc2oc(-c3cc(C)c(OCC(=O)O)c(C)c3)nc12 [Example 79] please.
Reply: 82%

Ask: Report activation at 10 µM for CCCOc1nc(OCCC2CC2)nc2oc(-c3cc(C)c(OCC(=O)O)c(C)c3)nc12 [Example 23] please.
Reply: 98%

Ask: Report activation at 10 µM for CCCOc1nc(Oc2ccccc2Cl)nc2oc(-c3cc(C)c(OCC(=O)O)c(C)c3)nc12 [Example 47] please.
Reply: 86%

Ask: Report activation at 10 µM for CCCOc1nc(Oc2cncc(C)c2)nc2oc(-c3cc(C)c(OCC(=O)O)c(C)c3)nc12 [Example 33] please.
Reply: 110%

Ask: Report activation at 10 µM for CCCOc1nc(Oc2cc(Cl)ccc2C)nc2oc(-c3cc(C)c(OCC(=O)O)c(C)c3)nc12 [Example 56] please.
Reply: 78%

Ask: Report activation at 10 µM for CCCOc1nc(OCC(C)C)nc2oc(-c3cc(C)c(OCC(=O)O)c(C)c3)nc12 [Example 12] please.
Reply: 97%

Ask: Report activation at 10 µM for CCCOc1nc(Oc2ccccc2C)nc2oc(-c3cc(C)c(OCC(=O)O)c(C)c3)nc12 [Example 30] please.
Reply: 97%

Ask: Report activation at 10 µM for CCCOc1nc(Oc2cncc(Cl)c2)nc2oc(-c3cc(C)c(OCC(=O)O)c(C)c3)nc12 [Example 48] please.
Reply: 115%

Ask: Report activation at 10 µM for CCCOc1nc(Oc2cc(C)cc(F)c2)nc2oc(-c3cc(C)c(OCC(=O)O)c(C)c3)nc12 [Example 42] please.
Reply: 66%

Ask: Report activation at 10 µM for CCCOc1nc(Oc2cccc(Cl)c2)nc2oc(-c3cc(C)c(OCC(=O)O)c(C)c3)nc12 [Example 10] please.
Reply: 86%

Ask: Report activation at 10 µM for CCCOc1nc(Oc2ccc(F)c(C)c2)nc2oc(-c3cc(C)c(OCC(=O)O)c(C)c3)nc12 [Example 43] please.
Reply: 60%

Ask: Report activation at 10 µM for CCCOc1nc(OC2CCCC2)nc2oc(-c3cc(C)c(OCC(=O)O)c(C)c3)nc12 [Example 2] please.
Reply: 90%

Ask: Report activation at 10 µM for CCCOc1nc(Oc2cccc(C)c2)nc2oc(-c3cc(C)c(OCC(=O)O)c(C)c3)nc12 [Example 29] please.
Reply: 75%

Ask: Report activation at 10 µM for CCCOc1nc(Oc2cc(F)ccc2F)nc2oc(-c3cc(C)c(OCC(=O)O)c(C)c3)nc12 [Example 1] please.
Reply: 100%

Ask: Report activation at 10 µM for CCCOc1nc(OC(C)CC)nc2oc(-c3cc(C)c(OCC(=O)O)c(C)c3)nc12 (centres unmarked) [Example 20] please.
Reply: 80%

###

- Experimental target: human Edg-1 receptor (Homo sapiens)
- Construct: FLAG (N); expressed in transfected cells; membrane preparation
- Procedure summary: GTP-γ-S assay using human Edg-1 receptors (scintillation proximity assay, CHO Flp-In cell membrane preparation)
- Format: biochemical
- Settings: test compound at 10 μM; high control 10 μM S1P regarded as 100% activation; [35S]GTP-γ-S binding, triplicate; read-out: % Activation (Edg-1 receptor activation in percent of the activation by 10 μM S1P)
Metric name: activation at 10 µM (%)
Note: unit % is implicit; provide only the numeric part.

Ask: Report activation at 10 µM for CCOc1nc(Oc2ccccc2F)nc2oc(-c3cc(C)c(OCC(=O)O)c(C)c3)nc12 [Example 26] please.
Reply: 127

Ask: Report activation at 10 µM for CCCOc1nc(Oc2ccc3sc(C)nc3c2)nc2oc(-c3cc(C)c(OCC(=O)O)c(C)c3)nc12 [Example 70] please.
Reply: 89

Ask: Report activation at 10 µM for CCCOc1nc(Oc2ccsn2)nc2oc(-c3cc(C)c(OCC(=O)O)c(C)c3)nc12 [Example 27] please.
Reply: 109

Ask: Report activation at 10 µM for CCCOc1nc(Oc2ccc(Cl)cc2)nc2oc(-c3cc(C)c(OCC(=O)O)c(C)c3)nc12 [Example 46] please.
Reply: 59

Ask: Report activation at 10 µM for CCCOc1nc(Oc2cccc(Cl)c2F)nc2oc(-c3cc(C)c(OCC(=O)O)c(C)c3)nc12 [Example 63] please.
Reply: 67

###

- Experimental target: human Edg-1 receptor (Homo sapiens)
- Construct: FLAG (N); expressed in transfected cells; membrane preparation
- Procedure summary: GTP-γ-S assay using human Edg-1 receptors (scintillation proximity assay, CHO Flp-In cell membrane preparation)
- Format: biochemical
- Settings: test compound at 10 μM; high control 10 μM S1P regarded as 100% activation; [35S]GTP-γ-S binding, triplicate; read-out: % Activation (Edg-1 receptor activation in percent of the activation by 10 μM S1P)
Metric name: activation at 10 µM (%)
Note: unit % is implicit; provide only the numeric part.

Ask: Report activation at 10 µM for "CCCOc1nc(Oc2cccc(SC(F)(F)F)c2)nc2oc(-c3cc(C)c(OCC(=O)O)c(C)c3)nc12" please.
Reply: 81

Ask: Report activation at 10 µM for "CCCOc1nc(Oc2cc(F)ccc2C)nc2oc(-c3cc(C)c(OCC(=O)O)c(C)c3)nc12" please.
Reply: 91

Ask: Report activation at 10 µM for "CCCOc1nc(Oc2cccc(C(F)(F)F)c2)nc2oc(-c3cc(C)c(OCC(=O)O)c(C)c3)nc12" please.
Reply: 82

Ask: Report activation at 10 µM for "CCCOc1nc(OC2CCC2)nc2oc(-c3cc(C)c(OCC(=O)O)c(C)c3)nc12" please.
Reply: 88

The values you see were collected from patent US8748436B2.
